Biological target: neurokinin NK2 receptor (Cavia porcellus, UniProt Q64077)
Construct: Using healthy guinea pigs (body weight, 350 to 550 g; Hartley male guinea pigs); from tissue; host or cells: live anaesthetised Hartley male guinea pigs (airway, in vivo)
Sequence (Q64077 whole entry): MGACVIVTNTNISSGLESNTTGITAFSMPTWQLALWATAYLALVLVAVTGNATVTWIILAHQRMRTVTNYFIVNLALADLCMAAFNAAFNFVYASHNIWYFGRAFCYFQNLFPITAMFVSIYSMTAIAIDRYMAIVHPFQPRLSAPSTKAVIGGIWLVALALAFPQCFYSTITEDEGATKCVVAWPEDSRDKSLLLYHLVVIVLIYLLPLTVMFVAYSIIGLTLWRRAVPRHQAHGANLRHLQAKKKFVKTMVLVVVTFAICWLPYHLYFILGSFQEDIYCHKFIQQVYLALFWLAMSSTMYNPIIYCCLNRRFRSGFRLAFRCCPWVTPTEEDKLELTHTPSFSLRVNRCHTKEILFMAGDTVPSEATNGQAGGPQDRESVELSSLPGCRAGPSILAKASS
Assay: Effect of suppressing neurokinin A-induced airway contraction (in vivo, intratracheal administration)
Design: species or system guinea pig
Settings: guinea pig; guinea pigs, intratracheal administration 60 minutes before 4 μg/kg i.v. NKA; AUC of increase in airway pressure over 10 minutes; read-out: ID50 (the source's name)
Where a name gives a salt, the structure may show the parent alone.
Decision: ED50 beneath 0.03 mg/kg gives 1; ED50 meeting or exceeding 0.03 mg/kg gives -1.

{"molecule": "CN(CCN1CCC(OC(=O)Nc2ccccc2-c2ccccc2)CC1)C(=O)CCCCN(C)c1ccc(C(=O)N(C)CCCN(C)C(=O)CO[C@H]2Cc3ccccc3C23CCN(CC[C@@]2(c4ccc(F)cc4)CN(C(=O)c4cc(C(F)(F)F)cc(C(F)(F)F)c4)CO2)CC3)cc1 [Example 38, trihydrochloride]", "answer label": 1}
{"molecule": "CN(CCCCCC(=O)N(C)CCN1CCC(OC(=O)Nc2ccccc2-c2ccccc2)CC1)Cc1ccc(C(=O)N(C)CCCN(C)C(=O)CO[C@H]2Cc3ccccc3C23CCN(CC[C@@]2(c4ccc(F)cc4)CN(C(=O)c4cc(C(F)(F)F)cc(C(F)(F)F)c4)CO2)CC3)cc1", "answer label": 1}
{"molecule": "CN(CCN1CCC(OC(=O)Nc2ccccc2-c2ccccc2)CC1)C(=O)CCNc1ccc(C(=O)N(C)CCCN(C)C(=O)CO[C@H]2Cc3ccccc3C23CCN(CC[C@@]2(c4ccc(F)cc4)CN(C(=O)c4cc(C(F)(F)F)cc(C(F)(F)F)c4)CO2)CC3)cc1", "answer label": -1}
{"molecule": "CN(CCN1CCC(OC(=O)Nc2ccccc2-c2ccccc2)CC1)C(=O)CCCCCNc1ccc(C(=O)N(C)CCN(C)C(=O)CO[C@H]2Cc3ccccc3C23CCN(CC[C@@]2(c4ccc(F)cc4)CN(C(=O)c4cc(C(F)(F)F)cc(C(F)(F)F)c4)CO2)CC3)cc1 [Example 16, trihydrochloride]", "answer label": 1}
{"molecule": "CN(CCN1CCC(OC(=O)Nc2ccccc2-c2ccccc2)CC1)C(=O)CCCCCNc1ccc(N(C)C(=O)CCCN(C)C(=O)CO[C@H]2Cc3ccccc3C23CCN(CC[C@@]2(c4ccc(F)cc4)CN(C(=O)c4cc(C(F)(F)F)cc(C(F)(F)F)c4)CO2)CC3)cc1 [Example 84, trihydrochloride]", "answer label": 1}
{"molecule": "Cc1cc(NCCCCCC(=O)N(C)CCN2CCC(OC(=O)Nc3ccccc3-c3ccccc3)CC2)ccc1C(=O)N(C)CCCN(C)C(=O)CO[C@H]1Cc2ccccc2C12CCN(CC[C@@]1(c3ccc(F)cc3)CN(C(=O)c3cc(C(F)(F)F)cc(C(F)(F)F)c3)CO1)CC2 [Example 18, trihydrochloride]", "answer label": -1}

###

Molecular target: neurokinin NK2 receptor (Cavia porcellus, UniProt Q64077)
Construct: Using healthy guinea pigs (body weight, 350 to 550 g; Hartley male guinea pigs); from tissue; host or cells: live anaesthetised Hartley male guinea pigs (airway, in vivo)
Assay: Effect of suppressing neurokinin A-induced airway contraction (in vivo, intratracheal administration)
Design: species or system guinea pig
Conditions: guinea pig; guinea pigs, intratracheal administration 60 minutes before 4 μg/kg i.v. NKA; AUC of increase in airway pressure over 10 minutes; read-out: ID50 (the source's name)
Description: Using healthy guinea pigs (body weight, 350 to 550 g; Hartley male guinea pigs), the effect of suppressing airway contraction induced by neurokinin A (NKA), which is an NK2 receptor agonist, was examined by a modified method of Konzett-Roessler (Naunyn-Schmiedebergs Arch. Exp. Pathol. Pharmakol. 195, 71 [1940]) using airway pressure as an indicator. […]
Structures can show the parent of a compound that is named as a salt.
Parameter: ED50. Scope: all listed entries.

{"molecule": "CN(CCN1CCC(OC(=O)Nc2ccccc2-c2ccccc2)CC1)C(=O)CCCCCN(C)c1ccc(C(=O)N(C)CCCN(C)C(=O)CO[C@H]2Cc3ccccc3C23CCN(CC[C@@]2(c4ccc(F)cc4)CN(C(=O)c4cc(C(F)(F)F)cc(C(F)(F)F)c4)CO2)CC3)cc1 [Example 76]", "ED50": "0.0176 mg/kg"}
{"molecule": "CN(CCN1CCC(OC(=O)Nc2ccccc2-c2ccccc2)CC1)C(=O)CCCCCNc1ccc(C(=O)N2CCCN(C(=O)CO[C@H]3Cc4ccccc4C34CCN(CC[C@@]3(c5ccc(F)cc5)CN(C(=O)c5cc(C(F)(F)F)cc(C(F)(F)F)c5)CO3)CC4)CC2)cc1 [Example 110, trihydrochloride]", "ED50": "0.0135 mg/kg"}
